Origin of the recorded values: ChEMBL document CHEMBL1909046

Experiment: DRUGMATRIX: Tumor Necrosis Factor (TNF), Non-Selective radioligand binding (ligand: [125I] TNF-alpha)
Assay type: cell membranes, Membrane
Conditions: u-937; Not Active = under 50% inhibition at 10 µM
ASSAY_METRIC: IC50

Guide cases for IC50, answers given:
>  <SUBSTANCE>
THIMEROSAL

>  <MEAS_VALUE>
Not Active

$$$$
>  <SUBSTANCE>
COBALT(II) ACETYLACETONATE

>  <MEAS_VALUE>
Not Active

$$$$
>  <SUBSTANCE>
INSULIN HUMAN

>  <MEAS_VALUE>
Not Active

$$$$
>  <SUBSTANCE>
POLYVINYL ALCOHOL

>  <MEAS_VALUE>
Not Active

$$$$

Q. Quick one: IC50 of STANNOUS FLUORIDE ?
A. Not Active

----------
Target: Adenosine receptor A3 (Homo sapiens); also: in other assays of this panel Not Active means under 50% inhibition at 10 µM;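 also: radioligand binding assay with AB-MECA serving as the labeled ligand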
Sequence (P0DMS8 whole entry): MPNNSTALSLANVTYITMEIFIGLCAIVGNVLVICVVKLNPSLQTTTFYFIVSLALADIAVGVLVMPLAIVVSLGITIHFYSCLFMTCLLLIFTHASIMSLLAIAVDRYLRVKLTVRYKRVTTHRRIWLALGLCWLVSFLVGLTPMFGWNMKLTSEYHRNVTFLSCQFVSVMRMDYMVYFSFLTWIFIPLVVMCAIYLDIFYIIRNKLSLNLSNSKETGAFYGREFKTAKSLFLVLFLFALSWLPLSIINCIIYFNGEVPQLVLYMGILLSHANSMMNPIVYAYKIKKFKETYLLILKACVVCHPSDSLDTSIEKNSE
Assay type: cell membranes, CHO-K1, Membrane
Settings: cho-k1
ASSAY_METRIC: IC50

>  <COMPOUND>
O=C(O)Cc1ccc(-c2ccccc2)cc1 [FELBINAC]

>  <IC50>
Not Active

$$$$
>  <COMPOUND>
C[C@]12CC[C@H]3[C@@H](CCC4=CC(=O)CC[C@@]43C)[C@@H]1CC[C@@H]2O [TESTOSTERONE]

>  <IC50>
Not Active

$$$$
>  <COMPOUND>
NC[C@H]1O[C@H](O[C@H]2[C@H](O)[C@@H](O[C@H]3O[C@H](CO)[C@@H](O)[C@H](N)[C@H]3O)[C@H](N)C[C@@H]2N)[C@H](N)C[C@@H]1O [TOBRAMYCIN]

>  <IC50>
Not Active

$$$$
>  <COMPOUND>
CC(=O)O[C@H]1C[C@@H]2CC[C@@H]3[C@H](CC[C@@]4(C)[C@H]3C[C@H]([N+]3(C)CCCCC3)[C@@H]4OC(C)=O)[C@@]2(C)C[C@@H]1N1CCCCC1.[Br-] [VECURONIUM BROMIDE]

>  <IC50>
Not Active

$$$$
>  <COMPOUND>
COc1ncnc(NS(=O)(=O)c2ccc(N)cc2)c1OC [SULFADOXINE]

>  <IC50>
Not Active

$$$$

# batch: return IC50 for each of the 6 compounds below
1. OCCN1CCN(CCCN2c3ccccc3Sc3ccc(Cl)cc32)CC1 [PERPHENAZINE]
2. Nc1nc2c(c(=O)[nH]1)N(C=O)C(CNc1ccc(C(=O)N[C@@H](CCC(=O)O)C(=O)O)cc1)CN2 (stereo partly drawn) [LEUCOVORIN]
3. CC(C)(Oc1ccc(C2CC2(Cl)Cl)cc1)C(=O)O (stereo not drawn) [CIPROFIBRATE]
4. CCCCC1C(=O)N(c2ccccc2)N(c2ccccc2)C1=O [PHENYLBUTAZONE]
5. CCS(=O)(=O)CCn1c([N+](=O)[O-])cnc1C [TINIDAZOLE]
6. NC[C@@H]1O[C@H](O[C@H]2[C@@H](O)[C@H](O[C@@H]3[C@@H](O)[C@H](N)C[C@H](N)[C@H]3O[C@H]3O[C@H](CN)[C@@H](O)[C@H](O)[C@H]3N)O[C@@H]2CO)[C@H](N)[C@@H](O)[C@@H]1O [FRAMYCETIN]

A.
Not Active
Not Active
Not Active
Not Active
Not Active
Not Active
